# measured_on: CDK4/Cyclin D1 (Homo sapiens (Human))
# procedure_details: CDK4/Cyclin D1 CHEF Assay (AQT0258 peptide)
# Type: biochemical
# test_parameters: 200 uM ATP, read-out: CDK4/ CyclinD1 AQT IC50
pIC50: −log10 of the molar value.
pIC50 listing for selected compounds.

Consider the reported pIC50 for these compounds:
>>> result("Cc1cc2cnc(NC3CCN(S(C)(=O)=O)CC3)nc2c(N2CC(O)(C(F)F)C2)n1")
"> 6.70"
>>> result("CN1Cc2ccc(Nc3ncc4ccnc(N5CCC6(CCN(S(C)(=O)=O)C6)C5)c4n3)cc2C1 (stereo not drawn)")
"> 6.70"
>>> result("Cc1cc2cnc(NC3CCN(S(=O)(=O)c4ccn(C)n4)CC3)nc2c(N2CC(F)(F)C3(CNC3)C2)n1")
"> 6.70"
>>> result("Cc1cc2cnc(NC3CCN(S(C)(=O)=O)CC3)nc2c(N2CC3(CCC(=O)N3)C2)n1")
"> 6.70"
>>> result("FC(F)c1cc2cnc(Nc3ccc4c(c3)CN(C3CC3)C4)nc2c(N2CC3(CCNC3)C2)n1")
"> 6.70"
>>> result("CS(=O)(=O)N1CCC(Nc2ncc3cc(C4CC4)nc(C4CC5(CNCCO5)C4)c3n2)CC1 (stereo not drawn)")
"> 6.70"

Now look at this entry.
# return pIC50 of COCCN1CC2(CC(c3nc(C4CC4)cc4cnc(NC5CCN(S(=O)(=O)CC6CCC6)CC5)nc34)C2)C1 (system: CDK4/Cyclin D1 (Homo sapiens (Human)))
> 6.70

----------
molecules and their reported pIC50
# measured_on: CDK4/Cyclin D1 (Homo sapiens (Human), UniProt P11802)
# Sequence (P11802 whole entry): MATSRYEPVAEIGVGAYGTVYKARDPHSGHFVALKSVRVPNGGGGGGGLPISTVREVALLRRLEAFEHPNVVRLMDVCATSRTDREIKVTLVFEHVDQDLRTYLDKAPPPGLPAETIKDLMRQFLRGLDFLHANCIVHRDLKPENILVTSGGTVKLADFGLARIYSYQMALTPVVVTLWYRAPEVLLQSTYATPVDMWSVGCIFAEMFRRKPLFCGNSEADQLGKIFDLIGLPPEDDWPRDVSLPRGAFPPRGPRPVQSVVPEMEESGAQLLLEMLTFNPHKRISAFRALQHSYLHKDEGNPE
# Sequence (P24385 whole entry partner): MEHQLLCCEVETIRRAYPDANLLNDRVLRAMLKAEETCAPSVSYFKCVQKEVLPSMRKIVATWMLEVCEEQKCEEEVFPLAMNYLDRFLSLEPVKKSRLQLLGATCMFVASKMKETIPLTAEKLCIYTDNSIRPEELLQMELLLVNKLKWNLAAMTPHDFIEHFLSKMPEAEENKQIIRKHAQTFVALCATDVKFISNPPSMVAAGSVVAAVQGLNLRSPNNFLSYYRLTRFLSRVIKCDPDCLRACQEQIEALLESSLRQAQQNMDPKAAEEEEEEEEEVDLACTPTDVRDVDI
# procedure_details: CDK4/Cyclin D1 CHEF Assay (AQT0258 peptide)
# Format: biochemical
# test_parameters: 200 uM ATP, read-out: CDK4/ CyclinD1 AQT IC50
pIC50: −log10 of the molar value.

The following molecules have reported results that may help.
>>> result("Cc1cc2cnc(Nc3cc4c(cc3F)CN(S(C)(=O)=O)C4)nc2c(N2CC3(CNC3)C2)n1")
"< 5.70"
>>> result("COC1CC2(C1)CN(c1nc(C3CC3)cc3cnc(NC4CCN(S(C)(=O)=O)CC4)nc13)C2")
"> 6.70"
>>> result("Cc1cc2cnc(N[C@@H]3CCOC[C@H]3O)nc2c(N2CC(O)(C3CC3)C2)n1")
"> 6.70"
>>> result("CS(=O)(=O)N1CCC(Nc2ncc3cc(C(F)F)nc(N4CC5(CCNCC5(F)F)C4)c3n2)CC1")
"> 6.70"
>>> result("Cc1cc2cnc(NC3CCN(S(=O)(=O)C4CC4)CC3)nc2c(N2CCC(OC(F)F)C2)n1 (stereo not drawn)")
"> 6.70"

We next turn to a different molecule, shown below.
In one line, give reported pIC50 of the entry Cc1cc2cnc(Nc3ccc(CS(C)(=O)=O)cc3)nc2c(N2CC(O)(C3CC3)C2)n1 .
> 6.70

----------
# measured_on: CDK6/Cyclin D3 (Homo sapiens (Human), UniProt Q00534)
# Sequence (Q00534 whole entry): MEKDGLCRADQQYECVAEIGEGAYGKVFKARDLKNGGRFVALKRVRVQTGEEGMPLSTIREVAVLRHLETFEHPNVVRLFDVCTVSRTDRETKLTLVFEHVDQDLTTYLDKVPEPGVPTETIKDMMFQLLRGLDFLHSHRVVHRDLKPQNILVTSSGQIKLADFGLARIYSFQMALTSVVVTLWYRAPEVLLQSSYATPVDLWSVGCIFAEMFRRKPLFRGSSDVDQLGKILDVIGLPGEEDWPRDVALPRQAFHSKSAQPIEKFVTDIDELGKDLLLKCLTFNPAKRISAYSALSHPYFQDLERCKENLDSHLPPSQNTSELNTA
# Sequence (P30281 whole entry partner): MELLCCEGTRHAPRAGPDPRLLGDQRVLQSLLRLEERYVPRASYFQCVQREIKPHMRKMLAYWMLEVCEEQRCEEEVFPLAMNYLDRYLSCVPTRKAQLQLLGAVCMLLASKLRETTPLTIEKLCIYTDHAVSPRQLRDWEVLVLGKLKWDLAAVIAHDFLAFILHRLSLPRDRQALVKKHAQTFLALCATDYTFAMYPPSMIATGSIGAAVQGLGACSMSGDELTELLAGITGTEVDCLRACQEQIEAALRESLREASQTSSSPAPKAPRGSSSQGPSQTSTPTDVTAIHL
# procedure_details: CDK6/Cyclin D3 ADP-Glo Kinase Assay
# test_parameters: 100 uM ATP, read-out: CDK6/ CyclinD3 IC50
pIC50: −log10 of the molar value.
pIC50 by entry:

>>> result("CN1Cc2ccc(Nc3ncc4ccnc(N5CC6(C5)CS(=O)(=O)C6)c4n3)cc2C1 [Compound 24]")
"> 6.70"

Recall and state the measured pIC50 for COCCN1CC2(C1)CN(c1nc(C3CC3)cc3cnc(NC4CCN(S(=O)(=O)CC5CCC5)CC4)nc13)C2 [Compound 64] .
6.30 to 6.70

For the compound Cc1cc2cnc(NC3CCN(S(C)(=O)=O)CC3)nc2c(N2CC(F)(F)C3(CNC3)C2)n1 [Compound 92] , give its reported pIC50.
> 6.70

Provide only the value of recorded pIC50 for Cc1cc2cnc(NC3CCN(S(C)(=O)=O)CC3)nc2c(N2CC3(CN(C)CC3(F)F)C2)n1 [Compound 101]
> 6.70

Please indicate pIC50 recorded for Cc1cc2cnc(NC3CCN(S(C)(=O)=O)CC3)nc2c(N2CCC3(CC3)C2)n1 [Compound 54]
> 6.70

Supply pIC50 value. Item: Cc1cc2cnc(Nc3cnn(CC4(N(C)C)CC4)c3)nc2c(N2CCC(C#N)(C3CC3)C2)n1 (stereo not shown) [Compound 38]
< 5.70

Please supply the value of reported pIC50 for the item CCN1CC2(C1)CN(c1ccc(Nc3ncc4ccnc(N5CCC6(C5)CC(F)(F)C6)c4n3)nc1)C2 [Example 6]
> 6.70

----------
Item-by-item account of IC50
# measured_on: CDK2/Cyclin E1 (Homo sapiens (Human), UniProt P24941)
# procedure_details: CDK2/Cyclin E1 Full length ADP-Glo Kinase Assay
# test_parameters: 20 uM ATP, read-out: CDK2/ CyclinE1 IC50

Look over these answered cases.
>>> result("Cc1cc2cnc(N[C@H]3CC[C@@H](CN(C)C)CC3)nc2c(N2CCC3(C2)CC3(F)F)n1 (stereo partly shown)")
"> 2 µM"
>>> result("Cc1cc2cnc(NC3CCN(S(=O)(=O)C4CC4)CC3)nc2c(N2CC(O)(C3CC3)C2)n1")
"< 0.2 µM"
>>> result("Cc1cc2cnc(Nc3cnn(CC4(N(C)C)CC4)c3)nc2c(N2CCC3(C2)CC3(F)F)n1 (stereo not shown)")
"0.2 to 0.5 µM"
>>> result("Cc1cc2cnc(NC3CCN(S(C)(=O)=O)CC3)nc2c(C2CC3(CNCC3(F)F)C2)n1 (stereo not shown)")
"< 0.2 µM"

Look up CDK2/Cyclin E1 (Homo sapiens (Human), UniProt P24941) data: IC50 of Cc1cc2cnc(NC3CCN(S(=O)(=O)CCC4(C)CC4)CC3)nc2c(N2CC(F)(F)C3(CNC3)C2)n1 , then report it.
< 0.2 µM

Tell me its IC50 on CDK2/Cyclin E1 (Homo sapiens (Human), UniProt P24941): Cc1cc2cnc(NC3CCN(S(=O)(=O)C4CC4)CC3)nc2c(N2CC3(C2)CC(C)(O)C3)n1
< 0.2 µM

Write down the reported IC50 (system: CDK2/Cyclin E1 (Homo sapiens (Human), UniProt P24941)) of Cc1cc2cnc(Nc3ccc(N4CC5(CN(C)C5)C4)cc3)nc2c(N2CCC(C#N)(C3CC3)C2)n1 (stereo not shown)
< 0.2 µM

----------
# measured_on: CDK6/Cyclin D3 (Homo sapiens (Human))
# procedure_details: CDK6/Cyclin D3 ADP-Glo Kinase Assay
# test_parameters: 100 uM ATP, read-out: CDK6/ CyclinD3 IC50
pIC50: −log10 of the molar value.
measured_attribute: pIC50

Recorded results for 3 compounds are shown here.
>>> result("Cc1cc2cnc(NC3CCN(S(=O)(=O)C4CC4)CC3)nc2c(N2CC3(CCNCC3(F)F)C2)n1 [Compound 61]")
"> 6.70"
>>> result("Cc1cc2cnc(Nc3ccc4c(c3)CN(C3CN(S(C)(=O)=O)C3)C4)nc2c(N2CC3(CN(C)C3)C2)n1 [Compound 29]")
"5.70 to 6.30"
>>> result("CS(=O)(=O)N1CCC(Nc2ncc3ccnc(N4CCC5(C4)CC(F)(F)C5)c3n2)CC1 [Example 2]")
"> 6.70"

Here is the next item to consider.
Report pIC50 for Cc1cc2cnc(Nc3cnn(CC4(N(C)C)CC4)c3)nc2c(N2CCC3(C2)CC3(F)F)n1 (stereo not shown) [Compound 36]
5.70 to 6.30

----------
# measured_on: CDK6/Cyclin D3 (Homo sapiens (Human))
# procedure_details: CDK6/Cyclin D3 ADP-Glo Kinase Assay
# Type: biochemical
# test_parameters: 100 uM ATP, read-out: CDK6/ CyclinD3 IC50
# Method: CDK6/Cyclin D3 ADP-Glo Kinase Assay The purpose of the CDK6/Cyclin D3 assay is to evaluate the inhibition (% inhibition and IC50 values) in the presence of small molecule inhibitors by using a Luminescent based ADP-Glo assay. CDK6/Cyclin D3 catalyzes the production of ADP from ATP. ADP-Glo assay monitors ADP producing biochemical reactions. […] Samples were incubated for 40 minutes, after which plate well luminescence was measured on a Envision microplate reader. […]
pIC50: −log10 of the molar value.
Parameter pIC50: see the listing below.

# example entries with known answers
>>> result("CS(=O)(=O)N1CCC(Nc2ncc3ccnc(N4CCN(C5CC5)CC4)c3n2)CC1")
"6.30 to 6.70"
>>> result("[2H]C([2H])([2H])N1CC2(CN(c3nc(C)cc4cnc(NC5CCN(S(=O)(=O)c6cnn(C)c6)CC5)nc34)CC2(F)F)C1")
"> 6.70"
>>> result("Cc1cc2cnc(Nc3cc4c(cc3F)CN(S(C)(=O)=O)C4)nc2c(N2CC3(CCNC3)C2)n1")
"< 5.70"
>>> result("Cc1cc2cnc(NC3CCN(S(=O)(=O)C4CC4)CC3)nc2c(N2CC3(CNC3)C2)n1")
"> 6.70"
>>> result("Cc1cc2cnc(NC3CCN(S(=O)(=O)C4CC4)CC3)nc2c(N2CC(F)(F)C3(CN(C)C3)C2)n1")
"> 6.70"
>>> result("Cc1cc2cnc(Nc3ccc(N4CC5(CN(C)C5)C4)cc3)nc2c(N2CCC(C#N)(C3CC3)C2)n1 (centres unmarked)")
"> 6.70"

Find the measured pIC50 of Cc1cc2cnc(NC3CCN(S(=O)(=O)C4CC4)CC3)nc2c(N2CC(CS(C)(=O)=O)C2)n1 with CDK6/Cyclin D3 (Homo sapiens (Human)) as test system.
6.30 to 6.70

Look up and report pIC50, with CDK6/Cyclin D3 (Homo sapiens (Human)) as system, for Cc1cc2cnc(NC3CCN(S(C)(=O)=O)CC3)nc2c(C2CC(O)(C(F)F)C2)n1 (centres unmarked)
> 6.70
